- assay target: Recombinant AMPK α1/β1/γ1 complex (Homo sapiens (Human), UniProt Q13131+Q9Y478)
- Sequence (Q13131 whole entry): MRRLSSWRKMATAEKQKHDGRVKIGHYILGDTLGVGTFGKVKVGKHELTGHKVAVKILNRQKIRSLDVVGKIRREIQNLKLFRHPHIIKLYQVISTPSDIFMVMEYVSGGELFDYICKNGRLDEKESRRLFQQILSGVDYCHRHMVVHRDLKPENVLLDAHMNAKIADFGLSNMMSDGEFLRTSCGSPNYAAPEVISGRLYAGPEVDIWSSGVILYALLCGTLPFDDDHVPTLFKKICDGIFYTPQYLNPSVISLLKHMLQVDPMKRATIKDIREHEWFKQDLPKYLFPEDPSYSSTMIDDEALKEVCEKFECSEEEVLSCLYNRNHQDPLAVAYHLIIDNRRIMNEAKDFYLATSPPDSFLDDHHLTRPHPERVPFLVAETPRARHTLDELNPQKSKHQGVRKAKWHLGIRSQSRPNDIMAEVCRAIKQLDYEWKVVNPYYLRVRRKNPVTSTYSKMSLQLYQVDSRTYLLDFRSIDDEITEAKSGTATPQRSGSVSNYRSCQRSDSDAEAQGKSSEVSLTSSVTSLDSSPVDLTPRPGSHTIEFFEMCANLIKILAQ
- Sequence (Q9Y478 whole entry): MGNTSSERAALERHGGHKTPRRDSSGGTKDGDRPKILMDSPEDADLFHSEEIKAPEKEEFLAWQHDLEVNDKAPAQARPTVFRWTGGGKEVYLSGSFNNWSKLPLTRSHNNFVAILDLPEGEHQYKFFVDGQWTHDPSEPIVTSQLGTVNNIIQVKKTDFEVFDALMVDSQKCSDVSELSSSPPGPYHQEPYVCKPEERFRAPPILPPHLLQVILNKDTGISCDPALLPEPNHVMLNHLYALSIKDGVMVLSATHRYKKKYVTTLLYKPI
- Sequence (P54619 whole entry partner): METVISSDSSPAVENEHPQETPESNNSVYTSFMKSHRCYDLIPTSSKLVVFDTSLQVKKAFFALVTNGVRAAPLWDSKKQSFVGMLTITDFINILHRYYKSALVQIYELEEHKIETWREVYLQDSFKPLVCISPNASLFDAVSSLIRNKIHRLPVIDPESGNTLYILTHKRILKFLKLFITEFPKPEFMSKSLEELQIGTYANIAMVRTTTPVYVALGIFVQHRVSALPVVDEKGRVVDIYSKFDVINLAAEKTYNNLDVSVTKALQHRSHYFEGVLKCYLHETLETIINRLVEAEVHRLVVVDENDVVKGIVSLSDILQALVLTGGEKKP
- protocol text: In vitro pAMPK1 kinase activation assay (ADP-Glo, SAMS peptide)
- settings: AMPK α1/β1/γ1 pre-activated with CAMKK2; 12-point curve; 15 min compound incubation
readout type: EC50 (nM)

{"compound": "O=C(NCCS(=O)(=O)O)c1ccc(-c2ccc(-c3nc4nc(O[C@@H]5CO[C@H]6[C@@H]5OC[C@H]6O)[nH]c4cc3Cl)cc2)cc1 [Compound 5]", "EC50 / nM": 0.86}
{"compound": "O[C@@H]1CCN(Cc2ccc(-c3ccc(-c4cc5nc(O[C@@H]6CO[C@H]7[C@@H]6OC[C@H]7O)[nH]c5cc4Cl)cc3)cc2)C1 [Compound 59]", "EC50 / nM": 1.04}
{"compound": "CN1CCN(Cc2ccc(-c3ccc(-c4cc5nc(O[C@@H]6CO[C@H]7[C@@H]6OC[C@H]7O)[nH]c5cc4Cl)cc3)cc2)CC1 [Compound 57]", "EC50 / nM": 0.89}

[I] OCC1(CO)CN(Cc2ccc(-c3ccc(-c4cc5nc(O[C@@H]6CO[C@H]7[C@@H]6OC[C@H]7O)[nH]c5cc4Cl)cc3)cc2)C1 [Compound 66]
[II] O=P(O)(O)c1ccc(-c2ccc(-c3nc4nc(O[C@H]5CO[C@H](CO)[C@@H](O)C5)[nH]c4cc3Cl)cc2)cc1 [Compound 12]
Consider entries I and II . Which has the numerically lower EC50? Please indicate the selected item by its label.
I
(I: 0.8 nM, II: 152 nM)

[1] OCC1(CO)CCN(Cc2ccc(-c3ccc(-c4cc5nc(O[C@@H]6CO[C@H]7[C@@H]6OC[C@H]7O)[nH]c5cc4Cl)cc3)cc2)CC1 [Compound 60]
[2] CN(CCOCCO)S(=O)(=O)c1ccc(-c2ccc(-c3cc4nc(O[C@@H]5CO[C@H]6[C@@H]5OC[C@H]6O)[nH]c4cc3Cl)cc2)cc1 [Compound 72]
Between these two entries, 1 and 2 , state which has the higher EC50. In your reply, give the label of the chosen option.
2

Entry source: patent US11407768B2
